t1/2 (h), time required to oxidize half of the thiol to its disulfide listing for selected compounds.
# measurementDescription: Catalytic activity of GPx mimetics: reduction of tert-butyl hydroperoxide with benzyl thiol
Could you give me the number in h? Just the number is fine.

Previously resolved entries follow.
- compound: "COc1ccc2c(c1)CO[Se]21OCc2cc(OC)ccc21 [Compound 126, spirodioxyselenurane]"
  quantitativeResult: 39
- compound: "O=C1O[Se](=O)c2ccccc21 (centres unmarked) [Compound 22, Benzo-3-oxo-1,2-Oxaselenolane Se-Oxide]"
  quantitativeResult: 252

Entry O=C1O[Se]2(OC(=O)c3ccccc32)c2ccccc21 [Compound 25, Spirodioxyselenurane, reference compound] has what t1/2 (h), time required to oxidize half of the thiol to its disulfide? 113

# iterate: c1ccc2c(c1)CO[Se]21OCc2ccccc21 [Compound 24, Spirodioxyselenurane] 62

Now this one: O=[Se]1OCc2ccccc21 (centres unmarked) [Compound 19, Benzo-1,2-oxaselenolane Se-Oxide] 162

Another compound: O=[Se]1OCc2cc(F)ccc21 (centres unmarked) [Compound 93, 5-fluorobenzo-1,2-oxaselenolane Se-oxide] 238

Then what about the compound Fc1ccc2c(c1)CO[Se]21OCc2cc(F)ccc21 [Compound 127, spirodioxyselenurane] ? 181

Follow-up entry: COc1ccc2c(c1)CO[Se]2=O (centres unmarked) [Compound 91] 81
